Reported values of GI50 for individual entries
- Tested on: OVCAR-4
- assayRemarks: NCI tumour cell line growth inhibition, 48 h
Calls of active or inactive are those of the source. Rule as the data show it: active = GI50 up to about 1.1 µM and inactive = higher.

As a guide, the following entries are already answered.
COC(=O)/C(C#N)=C1\CCC(Nc2cccc(C(F)(F)F)c2)N1C (configuration not stated)
> 100 µM (inactive)
O=C1[C@H]2ON(c3ccccc3)C(c3ccccc3)[C@H]2C(=O)N1c1ccc(Cc2ccc(N3C(=O)[C@@H]4ON(c5ccccc5)C(c5ccccc5)[C@@H]4C3=O)cc2)cc1 (some centres not stated)
> 100 µM (inactive)
CC(C)NC(=O)N(Nc1ccccc1)C(C)(C)C
> 100 µM (inactive)
CC(=O)O/C=C(/C=C/OC(C)=O)C(C/C=C(\C)C#CC=C(C)C)OC(C)=O (configuration not stated)
38.4 µM (inactive)
C[C@]12CCC3c4ccc(O)cc4CC[C@H]3C1CC(=O)N(CCN1CCCC1)C2=O (some centres not stated)
> 10 µM (inactive)

Param item: CCN(CC)CC1CCCCCCCCCCC1=O (configuration not stated) ; param system: OVCAR-4; output GI50: > 100 µM (inactive)

Param item: N#Cc1ccsc1Nc1ccccc1[N+](=O)[O-] ; param system: OVCAR-4; output GI50: > 100 µM (inactive)

====

- Test system: OVCAR-4
- assayRemarks: NCI tumour cell line growth inhibition, 48 h
The source made the active and inactive calls. Cut-off read from the data, not from the text of the source: active = GI50 up to about 1.1 µM and inactive = higher.
Reported values of GI50 for individual entries

As a guide, the following entries are already answered.
CCOc1cc(C2CC(c3ccc(NS(=O)(=O)c4cc([N+](=O)[O-])ccc4C)cc3)=NN2)ccc1O (stereo not drawn)
22.8 µM (inactive)
Cc1ccccc1-n1c2nc(=O)n(C)c(=O)c-2nc2ccccc21
13.6 µM (inactive)

Please fill in: GI50 reported for C=C1C(=O)OC2C1C(OC(=O)/C(C)=C/C)CC(O)(CCl)C1C(OC(C)=O)C=C(C)C21O (stereo not drawn) = 17.2 µM (inactive)

====

- Tested on: 786-0
- assayRemarks: NCI tumour cell line growth inhibition, 48 h
Active and inactive are the calls of the source. Cut-off read from the data, not from the text of the source: active = GI50 up to about 1.1 µM and inactive = higher.
Use one of these outcomes when replying: T for active, F for inactive

Cc1c(N(C)C)ccc2c(=O)c3cccc(CC(=O)O)c3oc12
F
O=C(Nc1ccc(F)cc1)c1cc2c(cc1Cl)Sc1nccn1S2(=O)=O
F
Cc1cc(O)nc(NN2C(Cl)C(=O)C2c2ccc(Cl)cc2)n1 (configuration not stated)
F
CC(=O)O[C@H]1C(=O)[C@]2(C)[C@@H](OC(=O)OCCC(O)CO)C[C@H]3OC[C@@]3(OC(C)=O)[C@H]2[C@H](OC(=O)c2ccccc2)[C@]2(O)C[C@H](OC(=O)[C@H](O)[C@@H](NC(=O)c3ccccc3)c3ccccc3)C(C)=C1C2(C)C (some centres not stated)
T
O=C1[C@H]2ON(c3ccccc3)C(c3ccccc3)[C@H]2C(=O)N1c1ccc(Cc2ccc(N3C(=O)[C@@H]4ON(c5ccccc5)C(c5ccccc5)[C@@H]4C3=O)cc2)cc1 (some centres not stated)
F
CN1CCC2(CC1)/C(=N/C1CCCCC1)NC(=S)N2c1ccccc1
F

Could you now look at the following compound, please?
Exam item: Hi, do you know how CC(=O)Oc1ccc(O)c(O)c1C/C=C(\C)CC/C=C(\C)CC/C=C(\C)CCC=C(C)C came out in this test?
Marked response: T

====

- Tested on: IGROV-1
- assayRemarks: NCI tumour cell line growth inhibition, 48 h
Calls of active or inactive are those of the source. No stated cut-off is given here; in the data, active = GI50 up to about 1.1 µM and inactive = higher.
Reported values of GI50 for individual entries

C[C@H](NC(=O)C(Cc1ccccc1)(Cc1ccc(O)cn1)NC(=O)c1ccccc1)c1ccccc1 (stereo not given in full)
16.3 µM (inactive)

API: the following record is the query input.
Param item: CC(=O)/C(=C\c1ccc(Cl)c(Cl)c1)C(=O)C(C)CN(C)C (stereo not given) ; param system: IGROV-1; output GI50: 2.07 µM (inactive)
